Measured cell viability, listed per entry.
# Test system: Mel-DCC-11
# test: cell viability relative to DMSO control (fraction of DMSO control); higher = less cytotoxic, active = 0.5 or less
# measurement conditions: 1 µM; 120 h
Respond with the number and no other words.

Example entries begin here.
Task: Please report the recorded cell viability for "C=C[C@H]1[C@@H](O[C@@H]2O[C@H](CO)[C@@H](O)[C@H](O)[C@H]2O)OC=C2C(=O)OCC[C@]21O" .
Output: 1.35

Task: Please report the recorded cell viability for "Cl.N=C1CCCN1Cc1[nH]c(=O)[nH]c(=O)c1Cl.O=c1[nH]c(=O)n([C@H]2C[C@H](O)[C@@H](CO)O2)cc1C(F)(F)F.O=c1[nH]c(=O)n([C@H]2C[C@H](O)[C@@H](CO)O2)cc1C(F)(F)F" .
Output: 1.27

Task: Please report the recorded cell viability for CCC1(O)C(=O)OCc2c1cc1n(c2=O)Cc2cc3cc(O)ccc3nc2-1 (centres undefined) [Hydroxy Camptothecine] .
Output: 0.233

More entries:
Task: Please report the recorded cell viability for "Nc1ccccc1NC(=O)c1ccc(CNc2nccc(-c3cccnc3)n2)cc1" .
Output: 0.976

---

# System: Mel-DCC-11-R
# test: cell viability relative to DMSO control (fraction of DMSO control); higher = less cytotoxic, active = 0.8 or less
# measurement conditions: 1 µM; 120 h; vemurafenib co-treatment 8 µM
I would appreciate it if you answered using one of these outcomes: active, inactive

Task: Would you mind telling me which call this test gave CS(=O)(=O)CCNCc1ccc(-c2ccc3ncnc(Nc4ccc(OCc5cccc(F)c5)c(Cl)c4)c3c2)o1.Cc1ccc(S(=O)(=O)O)cc1.Cc1ccc(S(=O)(=O)O)cc1.O [Lapatinib ditosylate monohydrate] ?
Output: inactive

Task: Would you mind telling me which call this test gave O=C(NC(Cc1cc(=O)[nH]c2ccccc12)C(=O)O)c1ccc(Cl)cc1 (centres undefined) [Rebamipide] ?
Output: inactive

Task: Would you mind telling me which call this test gave "CN(N=O)C(=O)N[C@@H]1[C@@H](O)[C@H](O)[C@@H](CO)O[C@@H]1O" ?
Output: inactive

Task: Would you mind telling me which call this test gave CC[C@@]1(O)C(=O)OCc2c1cc1n(c2=O)Cc2cc3c(CN(C)C)c(O)ccc3nc2-1.Cl [Topotecan hydrochloride] ?
Output: active

Task: Would you mind telling me which call this test gave CC(O)(P(=O)([O-])O)P(=O)([O-])O.[Na+].[Na+] [Sodium etidronate] ?
Output: inactive

More entries:
Task: Would you mind telling me which call this test gave "O=S(=O)([O-])CCS.[Na+]" ?
Output: inactive

Task: Would you mind telling me which call this test gave Cl.Cl.O=C1c2c(O)ccc(O)c2C(=O)c2c(NCCNCCO)ccc(NCCNCCO)c21 [Mitoxantrone hydrochloride] ?
Output: active

Task: Would you mind telling me which call this test gave "CC(C)[C@H](NC(=O)[C@H](CC(=O)O)NC(=O)[C@H](CCCCN)NC(=O)[C@@H](N)CCCNC(=N)N)C(=O)N[C@@H](Cc1ccc(O)cc1)C(=O)O" ?
Output: inactive

Task: Would you mind telling me which call this test gave "O=C1c2c(O)ccc(O)c2C(=O)c2c(NCCNCCO)ccc(NCCNCCO)c21" ?
Output: active

Task: Would you mind telling me which call this test gave CC1(C)[C@@H](O[C@H]2O[C@H](C(=O)O)[C@@H](O)[C@H](O)[C@H]2OC2O[C@H](C(=O)O)[C@@H](O)[C@H](O)[C@H]2O)CC[C@]2(C)[C@H]3C(=O)C=C4[C@@H]5C[C@@](C)(C(=O)O)CC[C@]5(C)CC[C@@]4(C)[C@]3(C)CC[C@@H]12 (some centres undefined) ?
Output: inactive

Task: Would you mind telling me which call this test gave "O=C(c1ccc(F)c(F)c1Nc1ccc(I)cc1F)N1CC(O)([C@@H]2CCCCN2)C1" ?
Output: active

Task: Would you mind telling me which call this test gave "CC(=O)O[C@H]1C(=O)[C@]2(C)[C@@H](O)C[C@H]3OC[C@@]3(OC(C)=O)[C@@H]2[C@@H](OC(=O)c2ccccc2)[C@]2(O)C[C@H](OC(=O)[C@H](O)[C@@H](NC(=O)c3ccccc3)c3ccccc3)C(C)=C1C2(C)C" ?
Output: active

Task: Would you mind telling me which call this test gave N#CC[C@H](C1CCCC1)n1cc(-c2ncnc3[nH]ccc23)cn1 [(R)-Ruxolitinib] ?
Output: inactive

Task: Would you mind telling me which call this test gave Cl.N=c1ccn2c(n1)O[C@H]1[C@H](O)[C@@H](CO)O[C@H]12 [Cyclocytidine hydrochloride] ?
Output: active
